Entries and their pIC50 values follow.
MEASUREMENT TARGET: Polθ polymerase (Homo sapiens (Human), UniProt O75417)
Sequence (O75417 1792-2590): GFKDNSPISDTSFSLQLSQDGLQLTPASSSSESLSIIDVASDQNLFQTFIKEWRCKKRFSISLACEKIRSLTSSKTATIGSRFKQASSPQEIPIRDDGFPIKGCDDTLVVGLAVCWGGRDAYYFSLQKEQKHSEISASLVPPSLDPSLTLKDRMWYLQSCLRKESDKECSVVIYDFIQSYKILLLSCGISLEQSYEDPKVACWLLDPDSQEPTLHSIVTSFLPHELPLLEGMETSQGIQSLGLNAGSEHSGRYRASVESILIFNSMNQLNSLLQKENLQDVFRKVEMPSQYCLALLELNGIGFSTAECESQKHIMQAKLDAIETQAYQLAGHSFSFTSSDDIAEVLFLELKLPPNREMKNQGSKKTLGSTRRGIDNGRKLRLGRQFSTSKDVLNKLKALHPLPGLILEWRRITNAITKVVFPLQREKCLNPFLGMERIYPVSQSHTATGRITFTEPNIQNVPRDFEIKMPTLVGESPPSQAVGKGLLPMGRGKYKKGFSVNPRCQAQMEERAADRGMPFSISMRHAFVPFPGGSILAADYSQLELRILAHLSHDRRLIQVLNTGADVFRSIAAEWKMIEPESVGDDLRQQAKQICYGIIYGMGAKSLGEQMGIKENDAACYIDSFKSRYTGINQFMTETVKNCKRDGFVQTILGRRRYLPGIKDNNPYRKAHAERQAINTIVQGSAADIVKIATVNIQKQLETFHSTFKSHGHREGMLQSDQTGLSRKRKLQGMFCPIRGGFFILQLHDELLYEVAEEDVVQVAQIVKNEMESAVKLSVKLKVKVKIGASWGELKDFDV
pIC50: −log10 of the molar value.

Answered cases to consult:
CPD SMILES	MEASUREMENT TARGET	READOUT VALUE
CN(C(=O)[C@@H]1CNC(=O)N1c1cc(C(F)(F)F)c2c(n1)OCC2)c1ccc(F)c(Cl)c1F	Polθ polymerase (Homo sapiens (Human), UniProt O75417)	6.30 to 7.30
CN(C(=O)[C@@H]1CNC(=O)N1c1cc(C2CC2)c2ncsc2n1)c1ccc(F)c(Cl)c1F	Polθ polymerase (Homo sapiens (Human), UniProt O75417)	≥ 7.30
CN(C(=O)[C@@H]1CNC(=O)N1c1cc(C(F)(F)F)c2c(n1)CCC2(F)F)c1ccc(F)c(Cl)c1F	Polθ polymerase (Homo sapiens (Human), UniProt O75417)	6.30 to 7.30

Qu. Give pIC50 (Polθ polymerase (Homo sapiens (Human), UniProt O75417)) of the following molecule: `CN(C(=O)[C@@H]1CNC(=O)N1c1cc(C(F)(F)F)c2ccoc2n1)c1ccc(F)c(Cl)c1F`
Ans. 6.30 to 7.30

Qu. Now this one: `CN(C(=O)[C@@H]1CNC(=O)N1c1cc(C(F)(F)F)c2ccccc2n1)c1ccc(F)c(Cl)c1F`
Ans. 6.30 to 7.30

* * *

pIC50: −log10 of the molar value.
Record set of pIC50 for target or system Polθ polymerase (Homo sapiens (Human)).

Answered cases to consult:
CPD SMILES	MEASUREMENT TARGET	pIC50
CN(C(=O)[C@@H]1CNC(=O)N1c1cc(SC(F)(F)F)c2ncsc2n1)c1ccc(F)c(Cl)c1F	Polθ polymerase (Homo sapiens (Human))	6.30 to 7.30
CN(C(=O)[C@@H]1CNC(=O)N1c1cc(C(F)(F)F)c2c(n1)CCC2=O)c1ccc(F)c(Cl)c1F	Polθ polymerase (Homo sapiens (Human))	< 5.30
CN(C(=O)[C@@H]1CNC(=O)N1c1cc(C(F)(F)F)c2c(n1)CC[C@H]2O)c1ccc(F)c(Cl)c1F	Polθ polymerase (Homo sapiens (Human))	5.30 to 6.30
CN(C(=O)[C@@H]1CNC(=O)N1c1cc(C(F)(F)F)c2cc[se]c2n1)c1ccc(F)c(Cl)c1F	Polθ polymerase (Homo sapiens (Human))	≥ 7.30
CN(C(=O)[C@@H]1CNC(=O)N1c1cc(C(F)(F)F)n2cccc2n1)c1ccc(F)c(Cl)c1F	Polθ polymerase (Homo sapiens (Human))	≥ 7.30

Qu. Give pIC50 (Polθ polymerase (Homo sapiens (Human))) of the following compound: `CN(C(=O)[C@@H]1CNC(=O)N1c1cc(C(F)(F)F)c2c(n1)CC[C@]2(C)O)c1ccc(F)c(Cl)c1F`
Ans. 5.30 to 6.30

Qu. Now this one: `CN(C(=O)[C@@H]1CNC(=O)N1c1cc(C(F)(F)F)c2c(n1)C(=O)CC2)c1ccc(F)c(Cl)c1F`
Ans. ≥ 7.30

Data credit: patent US20250066368A1
